- System: A498 renal
- Method: NCI-60 one-dose screen, 48 h (100 = growth as untreated, 0 = no growth, -100 = all killed)
- Experimental Context: 10 µM unless noted
The panel holds about 83,000 compounds, 20% with a hit somewhere; the sample as a whole holds those more often.
Entries and their growth
The response must be a number in % with no trailing unit.

Worked cases, answers included:
# Compound, Assay Target, Value
rows = [
    ("Cc1cc(Cl)nc(Nc2ccccc2)n1", "A498 renal", 93.3),
    ("CCN(CC)C(CC(=O)c1ccccc1)C(=O)c1ccccc1 (stereo not drawn)", "A498 renal", 75.1),
    ("ON=C(C1CCCCC1)C1CCCCC1", "A498 renal", 94.7),
    ("COC(=O)CCOc1ccccc1", "A498 renal", 83.9),
    ("OCc1ccccc1F", "A498 renal", 98.5),
    ("CS(=O)(=O)c1nsc(N)n1", "A498 renal", 97.4),
    ("O=C1Cc2ccccc2C(=O)N1", "A498 renal", 103),
    ("COC(=O)C(Cc1cn(C(C)=O)c2ccccc12)P(=O)(OC)OC (stereo not drawn)", "A498 renal", 115),
]

Input `CCN(C)c1ccccc1` , output reported growth. 99.6

Find the measured growth of `CC(C)(C)C1=CC(=O)C(C(C)(C)C)=CC1=O` and report it. 122

Identify growth associated with the compound O=C1c2ccccc2C(c2ccccc2)C1c1ccccc1 (stereo not drawn) 102

Assign growth to the following record: `COc1cc2c(cc1O)C(=O)CCCC2` 116

Identify measured growth associated with CCOP(C)(=O)/C(Cc1ccc(OC)c(OC)c1)=N\O (stereo not drawn) 104

Give the reported growth for this compound. `Cc1cnc(N)s1` 103
